molecular target: Phosphotyrosine protein phosphatase (Mycobacterium tuberculosis, UniProt A0A045ISB3); assay: Non-competitive inhibition of Mycobacterium tuberculosis H37Rv ptpB expressed in Escherichia coli BL21 (DH3) cells using p-nitrophenyl phosphate as substrate incubated for 30 mins by Lineweaver-Burk blot analysis
Could you please report measured pKi for the items listed next?
pKi is a log-scale quantity: -log10 of the concentration expressed in molar.

Query: pKi; subject: CC[C@H](C)C[C@H](C)C[C@H](CO)C[C@@H](C)/C=C(C)/C=C(C)/C=C/C=C/C(=O)N1CCCC(O)C1=O (some centres undefined)
4.80

Try `CC[C@H](COC(C)=O)C[C@H](C)C[C@H](C)C[C@@H](C)/C=C(C)/C=C(/C=C/C=C/C(=O)O)C(=O)O` next.
5.28

Try `CC[C@H](C)C[C@H](C)C[C@@H]1CO[C@@H](\C(C)=C/C(=C/C=C/CC(=O)O)C(=O)O)[C@H](C)C1` next.
5.15

Try `CC[C@H](C)C[C@H](C)C[C@@H]1CO[C@@H](/C(C)=C/C(=C\C=C\CC(=O)O)C(=O)O)[C@H](C)C1` next.
5.05

###

Biological target: Phosphotyrosine protein phosphatase (Mycobacterium tuberculosis)
Sequence (A0A045ISB3 whole entry): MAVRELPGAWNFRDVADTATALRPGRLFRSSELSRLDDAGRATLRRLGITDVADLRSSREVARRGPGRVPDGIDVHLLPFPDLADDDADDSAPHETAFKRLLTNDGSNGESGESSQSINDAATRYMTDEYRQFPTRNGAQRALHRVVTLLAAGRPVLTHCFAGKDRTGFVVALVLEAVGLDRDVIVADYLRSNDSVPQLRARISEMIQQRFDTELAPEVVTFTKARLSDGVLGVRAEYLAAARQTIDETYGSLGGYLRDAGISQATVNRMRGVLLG
Test: Inhibition of Mycobacterium tuberculosis H37Rv ptpB expressed in Escherichia coli BL21 (DH3) cells using 6,8-difluoromethylumbelliferyl phosphate as substrate incubated for 30 mins by fluorescence based assay
METRIC_NAME: pIC50
pIC50 is a log-scale quantity: -log10 of the concentration expressed in molar.

Query: pIC50; subject: CC1(C)CC[C@]2(C(=O)O)CC[C@]3(C)C(=CC[C@@H]4[C@@]5(C)CC[C@H](O)C(C)(C)[C@@H]5CC[C@]43C)[C@@H]2C1 [OLEANOLIC_ACID]
4.85
